system: Echinochloa crus-galli (ECHCG); assay: Test Example 1 pre-emergence herbicidal activity; assay type: in vivo; settings: Echinochloa crus-galli, 480 h, rate 250 g/ha, evaluated 20 days later, read-out: Pre-emergence activity ECHCG (100=total damage to plant; 0=no damage to plant)
# Lookup of reported pest or weed control at 250 g/ha keyed by entry

Molecule	Units	pest or weed control at 250 g/ha
Cc1cc(C)c(C2=C(O)[C@@H]3[C@@H]4O[C@@H](C[C@H]4c4cccc(C#N)c4)[C@@H]3C2=O)c(C)c1	%	20
Cc1cc(C)c(C2=C(O)[C@H]3[C@@H](C2=O)[C@]2(C)CC(C)[C@@]3(C)O2)c(C)c1 (stereo partly shown)	%	100
CCc1cc(C)cc(CC)c1C1=C(O)[C@H]2[C@@H](C1=O)[C@@H]1CC[C@@]2(COC)O1	%	100
CC[C@]12CC[C@H](O1)[C@@H]1C(=O)C(c3c(C)cc(C)cc3C)=C(O)[C@@H]12	%	100

---

tested on: Lolium perenne (LOLPE); test: Test Example 1 pre-emergence herbicidal activity; type: in vivo; details: Lolium perenne, 480 h, rate 250 g/ha, evaluated 20 days later, read-out: Pre-emergence activity LOLPE (100=total damage to plant; 0=no damage to plant)
Quantity Measured: pest or weed control at 250 g/ha (%)

Compound	Result Value
CCCCC[C@]12C=C[C@H](O1)[C@@H]1C(=O)C(c3c(C)cc(C)cc3C)=C(O)[C@@H]12 (racemic)	0
Cc1cc(C)c(C2=C(O)[C@H]3[C@@H](C2=O)[C@@H]2C=C[C@@]3(CSC(C)C)O2)c(C)c1 (racemic)	0
CC1=C[C@@H]2O[C@H]1[C@H]1C(O)=C(c3c(C)cc(C)cc3C)C(=O)[C@H]12 (racemic)	70
CCc1cc(C)cc(CC)c1C1=C(O)[C@@H]2[C@@H]3O[C@@H](C[C@H]3c3ccc([N+](=O)[O-])cc3Cl)[C@@H]2C1=O	40
CCc1cc(C)cc(CC)c1C1=C(OC(=O)C2CCCCC2)[C@H]2[C@@H](C1=O)[C@@H]1CC[C@H]2O1 (racemic)	100
CCc1cc(CC)c(C2=C(O)[C@H]3[C@@H](C2=O)[C@@H]2CC[C@H]3O2)c(CC)c1	100
CCc1cc(C)cc(CC)c1C1=C(O)[C@@H]2[C@@H]3O[C@@H](C[C@H]3c3cccc(OC)c3)[C@@H]2C1=O	80
C#CCOC(=O)OC1=C(c2c(C)cc(C)cc2C)C(=O)[C@@H]2[C@H]1[C@@]1(C)CC[C@]2(C)O1 (racemic)	100
CCc1cc(C)cc(CC)c1C1=C(O)[C@@H]2[C@@H]3O[C@@H](C[C@H]3c3cc(F)ccc3C)[C@@H]2C1=O	40
CCc1cc(C)cc(CC)c1C1=C(OC(=O)OCC(C)C)[C@H]2[C@@H](C1=O)[C@@H]1CC[C@H]2O1 (racemic)	100
CCc1cc(C)cc(C)c1C1=C(O)[C@H]2[C@@H](C1=O)[C@@H]1CC[C@H]2O1	100
CC[C@@H]1C[C@@H]2O[C@H]1[C@H]1C(O)=C(c3c(C)cc(C)cc3C)C(=O)[C@H]12	100
Cc1cc(C)c(C2=C(O)[C@@H]3[C@@H]4O[C@@H](C[C@H]4c4ccc([N+](=O)[O-])cc4)[C@@H]3C2=O)c(C)c1	20
C#CC1=C[C@@H]2O[C@H]1[C@H]1C(O)=C(c3c(CC)cc(C)cc3CC)C(=O)[C@H]12	40
Cc1cc(C)c(C2=C(O)[C@@H]3[C@@H]4O[C@@H](C[C@@H]4C)[C@@H]3C2=O)c(C)c1	100
Cc1cc(C)c(C2=C(O)[C@@H]3[C@@H]4O[C@@H](C[C@H]4/C=C/c4ccccc4)[C@@H]3C2=O)c(C)c1	20
CCc1cc(C)cc(CC)c1C1=C(O)[C@@H]2[C@@H]3O[C@@H](C[C@H]3c3cccc(C)c3)[C@@H]2C1=O	80
CCc1cc(C)cc(CC)c1C1=C(O)[C@@H]2[C@@H]3O[C@@H](C[C@H]3c3cccc(F)c3C#N)[C@@H]2C1=O	70
CCc1cc(C)cc(CC)c1C1=C(OC(=O)C(C)(C)C)[C@H]2[C@@H](C1=O)[C@@H]1CC[C@H]2O1 (racemic)	100
CCc1cc(C)cc(CC)c1C1=C(OC(=O)CCCCCCC(=O)OC)[C@H]2[C@@H](C1=O)[C@@H]1CC[C@H]2O1	90
CCc1cc(C)cc(CC)c1C1=C(O)[C@@H]2[C@@H]3O[C@@H](C[C@H]3c3cc(C(F)(F)F)ccc3Cl)[C@@H]2C1=O	40
Cc1cc(C)c(C2=C(O)[C@H]3[C@@H](C2=O)[C@@H]2C=C[C@@]3(CO)O2)c(C)c1 (racemic)	30
Cc1cc(C)c(C2=C(O)[C@H]3[C@@H](C2=O)[C@]2(C)CC[C@@]3(C)O2)c(C)c1	100
